pIC50 reference
tested on: Trypanosoma cruzi; experiment: Anti-parasitic activity against Trypanosoma cruzi Tulahuen CL2 infected in human MRC5 cells after 7 days by chlorophenol red […]-D-galactopyranoside dye based assay; format: functional, cell-based; settings: Trypanosoma cruzi, Tulahuen CL2, MRC5, 168 h
pIC50: −log10 of the molar value.

{"Compound": "CC1(COc2ccc(-c3ccc(OC(F)(F)F)cc3)cc2)Cn2cc([N+](=O)[O-])nc2S1 (configuration not stated)", "Test System": "Trypanosoma cruzi", "pIC50": 7.07}
{"Compound": "CC1(COc2ccc(OC(F)(F)F)cc2)Cn2nc([N+](=O)[O-])nc2S1(=O)=O (configuration not stated)", "Test System": "Trypanosoma cruzi", "pIC50": 5.89}
{"Compound": "O=[N+]([O-])c1cn2c(n1)SC(COc1ccc(OC(F)(F)F)cc1)C2 (configuration not stated)", "Test System": "Trypanosoma cruzi", "pIC50": 6.07}
{"Compound": "CC1(COCc2ccc(OC(F)(F)F)cc2)Cn2cc([N+](=O)[O-])nc2S1 (configuration not stated)", "Test System": "Trypanosoma cruzi", "pIC50": 6.17}
{"Compound": "CC1(COCc2ccc(OC(F)(F)F)cc2)Cn2cc([N+](=O)[O-])nc2[S+]1[O-] (stereo in doubt; 18)", "Test System": "Trypanosoma cruzi", "pIC50": 5.80}
{"Compound": "CC1(COc2ccc(-c3ccc(F)cc3)cc2)Cn2cc([N+](=O)[O-])nc2S1 (configuration not stated)", "Test System": "Trypanosoma cruzi", "pIC50": 6.68}
{"Compound": "CC1(COCc2ccc(Oc3ccccc3)cc2)Cn2c([N+](=O)[O-])cnc2S1 (configuration not stated)", "Test System": "Trypanosoma cruzi", "pIC50": 4.72}
